- System: MS2 coat protein
- assay.text: apparent Kd, MS2 coat protein; higher = weaker binding; RNA-MaP array
- cond: designed as: ON switch for theophylline; no ligand
Values of apparent Kd greater than or equal to 50 nM map to true (1); values below map to false (0).

Examples from the recorded data:
GCAUUACAUGAGGAUCACCCAUGUCUAGAUACCAGAUUUGUUUGAAUCCCUUGGCAGCUAGUGGACCACCGUACACGACAUACUA; false (0)
CCGCCCUACCGCGAUACCAGUACGGCAGUUAACAUGAGGAUCACCCAUGUGCAAACAUAAUACCCUUGGCAGCGCCUGAAUCCAU; false (0)
GAAGCUCGCGAUGAUACCAGCUCGACUGAUAACAUGAGGAUCACCCAUGUUGUGCGCCCUAGCCCUUGGCAGCAUGACAUAUUCG; true (1)
AAAAGACAUGAGGAUCACCCAUGUAGAGAUACCAGAUGCAUGGACAUCCCUUGGCAGCUCGUCACUUUCUAUAUUUUCCAGACGC; false (0)

--- query ---
Tell me whether apparent Kd is at least 50 nM here: CCAAGCAUAAUAGAUACCAGUCGUAUACCUCCAACAUGAGGAUCACCCAUGUGCUCAGUUGACCCUUGGCAGCUAUGCCUAUAGA false (0)

---

- Test system: MS2 coat protein
- assay.text: apparent Kd, MS2 coat protein; higher = weaker binding; RNA-MaP array; FMN 200 µM where present
- cond: ligand present: flavin mononucleotide; designed as: OFF switch for flavin mononucleotide
Recorded apparent Kd, one value per entry.
Give a bare numeral; the unit nM is implied.

Worked cases, answers included:
CUUUUGUGAGGAUAUUAUUAGUAAAUAAAUAAAAUUACUACUGAGAAGGCACAUGAGGAUCACCCAUGUUCCUC; 108
AUUAAAACAUAGGAUAUCGAAUUUAUCAUUUAACGAGAAGGAUGAACAUGAGGAUCACCCAUGUGGUAUCAUGG; 207
ACGUCUUAGUAGAAGGGACAUCGGCUGGUAAGCAUCAUCUCCUUCUCACAUGAGGAUCACCCAUGUCAGGAUAUACUAAGAGUC; 38.2
GACUUGUCAGGAUAUCUUACAUUUGCAUCUUAGUUACCAUUGGAGAAGGGACAUGAGGAUCACCCAUGUUUGGU; 34.4
AGACGGAGCAGAGGAUAUACAUGAGGAUCACCCAUGUAAAUGAAAGAUAGCAGCAAAGCUGCAAUGUAGAAGGCUGCUCCGUCA; 83.8
AUCAUGUAAGGAUAUCUUACAUGUGACUUCGGUCACUGUUCAGAGAAGGUACAUGAGGAUCACCCAUGUAGAAC; 28.4
GGAUAGGACAGAGGAUAUACGUGCUAGAGAUACUAGCAAAAUUUCCUCACAUGAGGAUCACCCAUGUAGAAGGCCGUCCUAUCG; 19.7

Now examine the next entry.
Could you share which apparent Kd value was measured for CUUUAGUGAGGAUAUGUGGCUUCGAUCGUGAGAUCGAGGCUACAGAAGGCACAUGAGGAUCACCCAUGUACCUU ? 17

---

- Tested on: MS2 coat protein
- assay.text: apparent Kd, MS2 coat protein; higher = weaker binding; RNA-MaP array; FMN 200 µM where present
- cond: ligand present: flavin mononucleotide; designed as: OFF switch for flavin mononucleotide
Values of apparent Kd greater than or equal to 30 nM map to Y; values below map to N.

Tell me whether apparent Kd is at least 30 nM here: GUGCGGUAGGAGAAGGACGGAGGCUUCUUUUCAUACAUGAGGAUCACCCAUGUAGGAUAUCCUACCUCACGCGGCCUACUACUG N

Tell me whether apparent Kd is at least 30 nM here: UGAUCGAGAGAUCUUAGAUUCUGGUAGGAUAUAAAACAAUUGCGCUUUACAUGAGGAUCACCCAUGUAGAAGGACUAGAGUCUA N

Tell me whether apparent Kd is at least 30 nM here: GGAUAGGACAGAGGAUAUACGUGCUAGAGAUACUAGCAAAAUUUCCUCACAUGAGGAUCACCCAUGUAGAAGGCUGUCCCAUCG Y

Tell me whether apparent Kd is at least 30 nM here: ACAUGAGGAUGAGGAUAUUCAUACAUGAGGAUAGAAGAAGGCAUACAUGAGGAUCACCCAUGUAUACACAUGAGGAUCCCUUAU Y

Tell me whether apparent Kd is at least 30 nM here: UCUGGGUCUGUGAGGAUAUUGGGUCUGAAAGGGCUCGAGAAGGCACAUGAGGAUCACCCAUGUAAGGGCUCGGG N

Tell me whether apparent Kd is at least 30 nM here: UUCAUGUUAGGAUAUUCCGCCACAGAGAAAGUCUGUGGAAUGAAGAAGGGACAUGAGGAUCACCCAUGUUCCAA N

Tell me whether apparent Kd is at least 30 nM here: UGUUUUCAUGUAGGAUAUGCUUGUCGUAGAUACGCAGAAGGACAUGAGGAUCACCCAUGUUAAUGCGACAGAGUUUAGAUUCUU Y
